B1: TPR 5TU (parent)
chain: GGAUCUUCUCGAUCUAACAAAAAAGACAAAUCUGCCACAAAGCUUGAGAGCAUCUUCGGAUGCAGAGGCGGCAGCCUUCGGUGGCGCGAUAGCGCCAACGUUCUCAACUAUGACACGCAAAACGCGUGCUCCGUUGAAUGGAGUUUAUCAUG

Variants of: B1
Test: polymerase ribozyme fitness, log enrichment relative to wild type (log ratio); higher = more active; in vitro selection for triplet polymerase activity
This sample holds only a part of the variants without activity.
Measurement name: polymerase ribozyme fitness (log ratio)
One number for each entry.

Some variants with recorded polymerase ribozyme fitness (log ratio):
changes="A41G G88U" measurement_name="polymerase ribozyme fitness (log ratio)" result=-3.82
changes="U33G C95U" measurement_name="polymerase ribozyme fitness (log ratio)" result=-2.22
changes="A30U U101G" measurement_name="polymerase ribozyme fitness (log ratio)" result=-3.89

Quick request: polymerase ribozyme fitness (log ratio) for each listed item, please.
1. C36A A150U
2. C108U G136U
3. A21C U56G C85A C87U G92A
4. U135G
5. G74U C96A C118U

[-4.01, -3.41, -3.51, -3.19, -3.97]
